Reference source: the RNAGym collection of RNA variant scans (doi:10.7554/elife.80360)

B1: Hairpin Ribozyme (parent)
chain: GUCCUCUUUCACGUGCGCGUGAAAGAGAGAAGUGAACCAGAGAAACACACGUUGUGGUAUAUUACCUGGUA

# Variants of: B1
# PROTOCOL TEXT: self-cleavage, relative activity (ratio to wild type); higher = more cleavage; co-transcriptional

{"VARIANT DESCRIPTION": "U2G A24G", "self-cleavage": 0.293}
{"VARIANT DESCRIPTION": "C48G G54A", "self-cleavage": 0.172}
{"VARIANT DESCRIPTION": "A45C G54U", "self-cleavage": 0.152}
{"VARIANT DESCRIPTION": "G29U A31U", "self-cleavage": 0.151}
{"VARIANT DESCRIPTION": "G13U G56C", "self-cleavage": 0.12}
{"VARIANT DESCRIPTION": "C12U G56U", "self-cleavage": 0.193}
{"VARIANT DESCRIPTION": "G40U A47C", "self-cleavage": 0.118}
{"VARIANT DESCRIPTION": "U55G A64G", "self-cleavage": 0.266}
{"VARIANT DESCRIPTION": "U5G A41G", "self-cleavage": 0.129}
{"VARIANT DESCRIPTION": "A41G G57U", "self-cleavage": 0.184}
{"VARIANT DESCRIPTION": "A11G A41G", "self-cleavage": 1.01}
{"VARIANT DESCRIPTION": "A24C C48G", "self-cleavage": 0.133}
{"VARIANT DESCRIPTION": "C12G C46G", "self-cleavage": 0.17}
{"VARIANT DESCRIPTION": "U55G A59U", "self-cleavage": 0.156}
{"VARIANT DESCRIPTION": "C6U A43U", "self-cleavage": 0.119}
{"VARIANT DESCRIPTION": "A44G A59G", "self-cleavage": 0.131}
{"VARIANT DESCRIPTION": "U8C U58G", "self-cleavage": 0.327}
{"VARIANT DESCRIPTION": "G1A U63A", "self-cleavage": 0.146}
{"VARIANT DESCRIPTION": "U9G G69A", "self-cleavage": 0.223}
{"VARIANT DESCRIPTION": "C4A A22G", "self-cleavage": 0.222}
{"VARIANT DESCRIPTION": "G19C A24G", "self-cleavage": 0.889}
{"VARIANT DESCRIPTION": "C6U G34A", "self-cleavage": 0.863}
{"VARIANT DESCRIPTION": "G15U A47G", "self-cleavage": 0.116}
{"VARIANT DESCRIPTION": "C12A C65A", "self-cleavage": 0.787}
{"VARIANT DESCRIPTION": "A22U U33C", "self-cleavage": 0.235}
{"VARIANT DESCRIPTION": "G13C U53G", "self-cleavage": 0.245}
{"VARIANT DESCRIPTION": "C16A G51C", "self-cleavage": 0.714}
{"VARIANT DESCRIPTION": "A22G U63G", "self-cleavage": 0.171}
{"VARIANT DESCRIPTION": "G21A A36C", "self-cleavage": 0.605}
{"VARIANT DESCRIPTION": "C50A U63C", "self-cleavage": 0.198}
{"VARIANT DESCRIPTION": "C16A U63C", "self-cleavage": 0.0962}
{"VARIANT DESCRIPTION": "C4G U33G", "self-cleavage": 0.13}
{"VARIANT DESCRIPTION": "C10A G32U", "self-cleavage": 0.156}
{"VARIANT DESCRIPTION": "U9C G69A", "self-cleavage": 0.357}
{"VARIANT DESCRIPTION": "G27A U55G", "self-cleavage": 0.144}
{"VARIANT DESCRIPTION": "U7C G29A", "self-cleavage": 0.204}
{"VARIANT DESCRIPTION": "C4G A22G", "self-cleavage": 0.326}
{"VARIANT DESCRIPTION": "G17A A41U", "self-cleavage": 1.38}
{"VARIANT DESCRIPTION": "A35U A44C", "self-cleavage": 0.267}
{"VARIANT DESCRIPTION": "A61U U67C", "self-cleavage": 0.175}
{"VARIANT DESCRIPTION": "G42C A64G", "self-cleavage": 0.232}
{"VARIANT DESCRIPTION": "A22G A44C", "self-cleavage": 0.136}
{"VARIANT DESCRIPTION": "A41G U52G", "self-cleavage": 1.15}
{"VARIANT DESCRIPTION": "A44C U55A", "self-cleavage": 0.0312}
{"VARIANT DESCRIPTION": "U8C G68U", "self-cleavage": 0.154}
{"VARIANT DESCRIPTION": "G19C G29C", "self-cleavage": 0.111}
{"VARIANT DESCRIPTION": "G1A G51U", "self-cleavage": 0.274}
{"VARIANT DESCRIPTION": "U2A C46G", "self-cleavage": 0.0818}
{"VARIANT DESCRIPTION": "A41C U58C", "self-cleavage": 1.2}
{"VARIANT DESCRIPTION": "G27C U63G", "self-cleavage": 0.101}
{"VARIANT DESCRIPTION": "U33G U67A", "self-cleavage": 0.146}
{"VARIANT DESCRIPTION": "C18G A31U", "self-cleavage": 0.165}
{"VARIANT DESCRIPTION": "U9C A49U", "self-cleavage": 0.0445}
{"VARIANT DESCRIPTION": "A39C C48G", "self-cleavage": 0.256}
{"VARIANT DESCRIPTION": "G19A C38G", "self-cleavage": 0.159}
{"VARIANT DESCRIPTION": "U33C A49G", "self-cleavage": 0.123}
{"VARIANT DESCRIPTION": "A35U A36G", "self-cleavage": 0.901}
{"VARIANT DESCRIPTION": "C6U C10G", "self-cleavage": 0.416}
{"VARIANT DESCRIPTION": "C6U G54U", "self-cleavage": 0.371}
{"VARIANT DESCRIPTION": "G25A A43C", "self-cleavage": 0.136}
{"VARIANT DESCRIPTION": "U53A A64C", "self-cleavage": 0.122}
{"VARIANT DESCRIPTION": "A23U G34U", "self-cleavage": 1.34}
{"VARIANT DESCRIPTION": "U33A C46G", "self-cleavage": 0.176}
{"VARIANT DESCRIPTION": "C3A U5C", "self-cleavage": 0.247}
{"VARIANT DESCRIPTION": "C18G G56C", "self-cleavage": 0.176}
{"VARIANT DESCRIPTION": "A26C A28U", "self-cleavage": 0.291}
{"VARIANT DESCRIPTION": "G32U C48A", "self-cleavage": 0.0918}
{"VARIANT DESCRIPTION": "U52C C66A", "self-cleavage": 0.279}
{"VARIANT DESCRIPTION": "C50G U60A", "self-cleavage": 0.268}
{"VARIANT DESCRIPTION": "A36G G57A", "self-cleavage": 0.148}
{"VARIANT DESCRIPTION": "U33C G57U", "self-cleavage": 0.19}
{"VARIANT DESCRIPTION": "G1C A44U", "self-cleavage": 0.295}
{"VARIANT DESCRIPTION": "C6G G27C", "self-cleavage": 0.174}
{"VARIANT DESCRIPTION": "U33C C38U", "self-cleavage": 0.0575}
{"VARIANT DESCRIPTION": "U7G A26C", "self-cleavage": 0.0432}
{"VARIANT DESCRIPTION": "A49C U58G", "self-cleavage": 0.286}
{"VARIANT DESCRIPTION": "C3A U63C", "self-cleavage": 0.154}
{"VARIANT DESCRIPTION": "U20A G54U", "self-cleavage": 0.547}
{"VARIANT DESCRIPTION": "U8G A45U", "self-cleavage": 0.118}
